Molecular target: T1, corticotropin-releasing hormone (CRH) peptide (human and mouse, not fully specified)
T1 peptide: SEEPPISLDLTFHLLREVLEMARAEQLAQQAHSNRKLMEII
Assay: cell-based or functional assay
Recorded CHO-CRE-hCRHR1 0.5 nM CRH IC50 values for a group of binders are listed next.
Hi! Could you send only the number? It should be in pM, unit omitted.

Which value of CHO-CRE-hCRHR1 0.5 nM CRH IC50 has been reported for PR302309-8 (antibody, human IgG1, kappa, V domains shown, Humanized variant of PR302309) VH: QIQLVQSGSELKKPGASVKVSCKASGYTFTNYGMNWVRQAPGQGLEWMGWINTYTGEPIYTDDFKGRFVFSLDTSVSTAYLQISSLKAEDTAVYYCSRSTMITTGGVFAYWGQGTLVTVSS VL: DVVMTQSPLSLPVTLGQPASISCRSSQTIVHSDGNTYLEWYQQRPGQSPRLLIYKVSNRFSGVPDRFSGSGSGTDFTLKISRVEAEDLGVYYCFQGSHVPWTFGGGTKVEIKR in the records?
1700

Which value of CHO-CRE-hCRHR1 0.5 nM CRH IC50 has been reported for PR302341-48 (antibody, human IgG1, kappa, V domains shown, Humanized, PTM-removed variant of PR302341) VH: QVQLVQSGAEVKKPGASVKVSCKASGYTFTDYFMKWVRQAPGQGLEWMGVINPNQGDIFYNQKFKGRVTMTVDKSTSTAYMELSSLRSEDTAVYYCARGTDRALFAYWGQGTLVTVSS VL: DVVMTQTPLSSPVTLGQPASISCRSGQSIVHSDANTYLEWYQQRPGQPPRLLIYKVSNRFSGVPDRFSGSGAGTDFTLKISRVEAEDLGVYYCFQGSHIPWTFGGGTKVEIKR in the records?
507

Which value of CHO-CRE-hCRHR1 0.5 nM CRH IC50 has been reported for PR302341-28 (antibody, human IgG1, kappa, V domains shown, Humanized, PTM-removed variant of PR302341) VH: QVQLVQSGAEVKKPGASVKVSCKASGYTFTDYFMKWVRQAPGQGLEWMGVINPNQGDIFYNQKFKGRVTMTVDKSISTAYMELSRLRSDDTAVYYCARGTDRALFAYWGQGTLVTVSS VL: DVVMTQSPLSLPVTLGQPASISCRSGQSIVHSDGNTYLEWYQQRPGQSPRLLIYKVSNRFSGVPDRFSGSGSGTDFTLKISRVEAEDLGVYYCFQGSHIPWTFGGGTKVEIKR in the records?
267
